Each record here notes measured inhibition.
# test.system: Enoyl-[acyl-carrier-protein] reductase [NADH] (Mycobacterium tuberculosis)
# method.summary: Inhibition of Mycobacterium tuberculosis InhA using 2-trans-decenoyl-CoA as substrate at 100 uM after 5 mins by spectrophotometry
endpoint: inhibition (%)

>>> print(df.to_string())
                                   molecule  result_units  numeric_value
0  CCCCCCCCCCCCCCC1(O)NC(=O)c2cnccc21 (racemic)             %             10
1  CCCCCCCCCCCCCCCCCCOc1cccc(C2(O)NC(=O)c3cnccc32)c1 (racemic)             %             67
2  CCCCCCCCCCCCN1C(=O)c2cnccc2C1(O)c1ccccc1 (racemic)             %             13
3  CCCCCCCCCCCCNc1cccc(C2(O)NC(=O)c3cnccc32)c1 (racemic)             %              9
4  CCCCCCCCCCCCSc1cccc(C2(O)NC(=O)c3cnccc32)c1 (racemic)             %             66
5  CCCCCCCCCCCCOc1cccc(C2(OC)NC(=O)c3cnccc32)c1 (racemic)             %              0
6  CCCCCCCCCCCCOc1ccc(C2(O)NC(=O)c3cnccc32)cc1 (racemic)             %             16
7  CCCCCCCCOc1cccc(C2(O)NC(=O)c3cnccc32)c1 (racemic)             %             12
8  CCCCCCCCCCCCOc1cccc(C2(O)NC(=O)c3cnccc32)c1 (racemic)             %             27
9  CCCCCCCCCCCCOc1ccccc1C1(O)NC(=O)c2cnccc21 (racemic)             %              0

====

# Tested on: Mycobacterium tuberculosis
# method.summary: Antimycobacterial activity Mycobacterium tuberculosis H37Rv after 6 days by MTT colorimetric assay
# Format: functional, organism-based
# reported.conditions: 144 h
Each record here notes measured MIC.
endpoint: MIC

In [3]: df
Out[3]:
                                   compound    result
0  CCCCCCCCCCCCCCC1(O)NC(=O)c2cnccc21 (racemic)  > 100 µM
1  CCCCCCCCCCCCOc1ccccc1C1(O)NC(=O)c2cnccc21 (racemic)  > 100 µM
2  CCCCCCCCCCCCOc1ccc(C2(O)NC(=O)c3cnccc32)cc1 (racemic)  > 100 µM
